# target_or_system: T1, pig CD47 (pig, UniProt Q9GKE8 19-303)
# T1 construct: whole, on cells; also called CD47 on porcine RBCs
# T1 sequence (looked up): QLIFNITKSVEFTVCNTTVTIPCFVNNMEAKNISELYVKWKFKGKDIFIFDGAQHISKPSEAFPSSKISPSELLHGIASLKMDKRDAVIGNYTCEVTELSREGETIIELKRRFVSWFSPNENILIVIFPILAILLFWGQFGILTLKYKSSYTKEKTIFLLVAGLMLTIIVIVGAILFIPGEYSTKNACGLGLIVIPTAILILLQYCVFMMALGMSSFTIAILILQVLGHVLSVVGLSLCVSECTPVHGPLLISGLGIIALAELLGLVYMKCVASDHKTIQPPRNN
# measurement_description: flow cytometry on RBCs, CHO supernatant 10 ng/ml
assay_readout: mean fluorescence relative to chimeric antibody

1. Clone 4 (pVxK7b-037-hum04-LC / pVxK7b-037-hum04-HC) (antibody, human IgG1, kappa, V domains shown) VH: QVQLQESGPGLVKPSQTLSLTCTVSGYTFTNYYVFWVRQAPGKGLEWVSDINPVNGDTNFNEKFKNRVTISVDTSKNQFSLKLSSVTAADTAVYYCARGGYTMDYWGQGTLVTVSS VL: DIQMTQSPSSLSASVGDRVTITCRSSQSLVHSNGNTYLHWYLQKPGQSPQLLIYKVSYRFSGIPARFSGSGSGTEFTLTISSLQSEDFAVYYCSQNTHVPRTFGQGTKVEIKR; 0.6 ratio
2. Clone 16 (pVxK7b-037-hum16-LC / pVxK7b-037-hum16-HC) (antibody, human IgG1, kappa, V domains shown) VH: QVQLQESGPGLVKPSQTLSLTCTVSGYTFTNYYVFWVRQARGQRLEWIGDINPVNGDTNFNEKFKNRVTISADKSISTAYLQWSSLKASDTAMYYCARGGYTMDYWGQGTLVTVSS VL: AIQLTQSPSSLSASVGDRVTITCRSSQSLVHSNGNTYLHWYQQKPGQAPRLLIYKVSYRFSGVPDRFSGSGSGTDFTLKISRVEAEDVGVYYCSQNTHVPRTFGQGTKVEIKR; 1.1 ratio
